- assayed_system: T1, human EphA2 (human, UniProt P29317 25-534, limits assumed)
- T1 construct: also called Eph receptor tyrosine kinase A2
- T1 sequence (P29317 25-534 limits assumed): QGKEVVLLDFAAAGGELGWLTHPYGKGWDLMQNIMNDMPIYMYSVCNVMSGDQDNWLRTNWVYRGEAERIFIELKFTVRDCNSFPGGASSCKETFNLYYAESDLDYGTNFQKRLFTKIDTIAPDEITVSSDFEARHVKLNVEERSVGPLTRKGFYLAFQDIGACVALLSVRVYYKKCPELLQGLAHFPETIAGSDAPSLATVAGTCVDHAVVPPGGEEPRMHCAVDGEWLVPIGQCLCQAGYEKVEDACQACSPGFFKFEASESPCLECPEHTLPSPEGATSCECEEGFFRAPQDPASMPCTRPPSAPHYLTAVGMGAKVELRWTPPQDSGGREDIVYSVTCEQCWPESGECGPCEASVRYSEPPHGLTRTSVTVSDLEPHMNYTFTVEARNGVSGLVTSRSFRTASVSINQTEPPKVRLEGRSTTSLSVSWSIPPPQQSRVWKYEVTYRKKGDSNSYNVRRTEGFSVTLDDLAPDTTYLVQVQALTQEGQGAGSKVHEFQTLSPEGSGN
- protocol_notes: fluorescence polarisation competition with tracer BCY90, human EphA2, mean of 6
Starred links: 1 amine or outer side, 2 acyl side, 3 side chain; linkers in the order of their positions; H or OH if unused. Positions of bridges follow the written chain, without caps; N, C: chain ends. Non-standard residues stand in square brackets, D forms with d. No end group written: not given here. TATA = O=C(CC[*:1])N1CN(C(=O)CC[*:2])CN(C(=O)CC[*:3])C1; Dip = N[C@H](C(=O)O)C(c1ccccc1)c1ccccc1; Hyp = O=C(O)[C@@H]1C[C@@H](O)CN1; hArg = N=C(N)NCCCC[C@H](N)C(=O)O; Aad = N[C@@H](CCCC(=O)O)C(=O)O; Cba = N[C@@H](CC1CCC1)C(=O)O
measurement_name: Ki (nM)

binder: A[hArg]DC[Hyp]LVNPLCLNP[dD]W[hArg]C-NH2 (linker 4-11-18 via TATA, Bicyclic peptide cyclised with TATA) [BCY14047]
recorded_value: 3.88

binder: C[Hyp][Cba]VNPLCL[Dip]P[dD]WTC[dA]-NH2 (linker 1-8-15 via TATA, Bicyclic peptide cyclised with TATA) [BCY12865]
recorded_value: 0.857

binder: A[hArg]DC[Hyp]LVNPLC[Aad]HP[dD]W[hArg]C-NH2 (linker 4-11-18 via TATA, Bicyclic peptide cyclised with TATA) [BCY13131]
recorded_value: 27.1

binder: A[hArg]DC[Hyp]LVNPLCLEP[dD]W[hArg]C-NH2 (linker 4-11-18 via TATA, Bicyclic peptide cyclised with TATA) [BCY12854]
recorded_value: 9.34

binder: A[hArg]DC[Hyp]LVNPLCLFP[dD]W[hArg]C-NH2 (linker 4-11-18 via TATA, Bicyclic peptide cyclised with TATA) [BCY13920]
recorded_value: 0.641
